- System: CAOV3
- method description: Primary qHTS to identify gynecologic anti-cancer compounds using libraries of approved drugs and bioactive compounds (AID 1345084); note: nearly all actives have a fitted effect of over 55% in size
- condition notes: Gynecologic cancer cell panel viability, ATPlite luminescence, 48 h; series mostly up to 57.5 µM
Results filed as inconclusive are left out. Activity calls are given as the source filed them. Calls come from the whole dose curve; as a rule, active = well fitted cell-killing curve with a large enough effect; inconclusive = small, poorly fitted or top-dose-only effect, or effect the other way; inactive = flat fitted curve, though single readings scatter.
Classes used: Y for active, N for inactive

# compound, qualitative label
records = [
    ("Cc1ccccc1C(=O)Nc1ccc(C(=O)N2CCC[C@@H](O)c3cc(Cl)ccc32)c(C)c1", "N"),
    ("Cn1c(NC[C@@H](N)Cc2ccccc2)nc(-c2ccncc2)c(-c2ccc3ccccc3c2)c1=O", "N"),
    ("COc1ccc2c(c1)C[C@H](C(=O)Nc1ccc(-c3cn[nH]c3)cc1OCCN(C)C)CO2", "N"),
    ("COc1ccc(CNC(=O)Nc2ncc([N+](=O)[O-])s2)cc1", "N"),
    ("CCOc1cc(CNC2CCCC2)cc(Cl)c1OCc1ccc(Cl)cc1", "Y"),
    ("Cc1c(C(=O)NCCCO)cnn1-c1nc(-c2cccc(C(F)(F)F)c2)cs1", "N"),
    ("Cc1cc(CN)cc(C)c1NC(=O)c1ccc(-c2cc(Cl)ccc2Cl)o1", "N"),
    ("CN(C)CC(=O)Nc1ccc2[nH]c(=O)c3ccccc3c2c1", "N"),
    ("CN([C@H]1c2cc(OCCCC(F)(F)F)ccc2OC(C)(C)[C@@H]1O)S(C)(=O)=O", "N"),
    ("COCCOCCOc1ccc(C2=N[C@@](C)(C(=O)O)CS2)c(O)c1", "N"),
    ("Cc1cc2nc(NCCCO)n(CC(=O)c3cc(C(C)(C)C)c(O)c(C(C)(C)C)c3)c2cc1C", "N"),
    ("CNc1cc(OC)c(C(=O)N[C@@H]2CCN(Cc3ccccc3)[C@@H]2C)cc1Cl", "N"),
    ("C=C1C(=O)O[C@@H]2CC(C)=C([C@@H](C)CCCO)[C@@H](OC(=O)C(C)C)[C@H]12", "N"),
    ("CCC[C@@H](NC(=O)N1C(=O)C(CC)(CC)[C@@H]1Oc1ccc(C(=O)N2CCN(C)CC2)cc1)c1ccc2c(c1)OCO2", "N"),
    ("C[C@H](NC(=O)C(C)(C)Oc1ccc(C(F)(F)F)cn1)[C@@H](Cc1ccc(Cl)cc1)c1cccc(C#N)c1", "N"),
    ("CN(CC(=O)N(Cc1ccc(C2CCCCC2)cc1)c1ccc(C(=O)O)cc1)S(=O)(=O)c1c(F)c(F)c(F)c(F)c1F", "Y"),
    ("O=C(CC1NCCC[C@H]1O)Cn1cnc2cc(Br)c(Cl)cc2c1=O (some centres undefined)", "N"),
    ("CCNC(=O)[C@@H]1CCCN1C(=O)[C@H](CCCN=C(N)N)NC(=O)[C@H](CC(C)C)NC(=O)[C@@H](CC(C)C)NC(=O)[C@H](Cc1ccc(O)cc1)NC(=O)[C@H](CO)NC(=O)[C@H](Cc1c[nH]c2ccccc12)NC(=O)[C@H](Cc1cnc[nH]1)NC(=O)[C@@H]1CCC(=O)N1", "N"),
    ("COc1cc(O)c(C(=O)CCc2ccc(O)cc2)c(O[C@@H]2O[C@H](CO)[C@@H](O)[C@H](O)[C@H]2O)c1", "N"),
    ("CC[C@H]1OC(=O)[C@H](C)[C@@H](O[C@H]2C[C@@](C)(OC)[C@@H](O)[C@H](C)O2)[C@H](C)[C@@H](O[C@@H]2O[C@H](C)C[C@H](N(C)C)[C@H]2O)[C@](C)(O)C[C@@H](C)/C(=N/OCOCCOC)[C@H](C)[C@@H](O)[C@]1(C)O", "N"),
    ("c1ccc(-c2cnc(Nc3ccc(OCCN4CCCC4)cc3)s2)cc1", "N"),
    ("Cn1cnc(-c2nccc3c(=O)[nH]c(OCCCC(F)(F)F)nc23)c1", "N"),
    ("C[C@@H](c1nc(-c2ccc(C#N)cc2)cs1)[C@](O)(Cn1cncn1)c1cc(F)ccc1F", "N"),
    ("CCOP(=O)(Cc1ccc(C(=O)Nc2ccc(Br)cc2C#N)cc1)OCC", "N"),
    ("CCCCc1nc(Cl)c(CO)n1Cc1ccc(-c2ccccc2-c2nnn[nH]2)cc1", "N"),
    ("CN(C)CCCCCCNC(=O)c1cccc(-c2cc(O)c3ncccc3c2)c1", "N"),
    ("C=C(C)C(=O)OC1[C@@H]2C(=C)C(=O)O[C@@H]2C[C@@H](C)[C@@H]2C=CC(=O)[C@@]12C (some centres undefined)", "N"),
    ("COc1ccc2c3ccnc4ccc(=O)n(c2c1)c43", "N"),
    ("COc1ccccc1NC(=O)Nc1ccc2ccccc2c1", "N"),
    ("C[N+]1(C)[C@@H]2CC[C@H]1CC(OC(=O)C(O)c1ccccc1)C2 (some centres undefined)", "N"),
    ("CCCCc1nc(C)c(CC(=S)N(C)C)c(=O)n1Cc1ccc(-c2ccccc2-c2nn[nH]n2)cc1", "N"),
    ("CC(=O)N1c2ccc(-c3ccc(C(=O)O)cc3)cc2C(Nc2ccc(Cl)cc2)CC1C (centres undefined)", "N"),
    ("Cn1cc(-c2cnc3ccc4ccc(CS(=O)(=O)NCc5ccccn5)cc4c(=O)c3c2)cn1", "N"),
    ("C=C(C)[C@@H]1CC[C@]2(C(=O)O)CC[C@]3(C)C(CCC4[C@@]5(C)C[C@@H](O)[C@H](O)C(C)(C)C5CC[C@]43C)C12 (some centres undefined)", "N"),
]
